These entries and their values trace back to patent US20170273985A1.

# STUDY TARGET: PDE1B (Homo sapiens, UniProt Q01064)
# METHOD DESCRIPTION: In vitro HTRF PDE1 inhibition assay (PDE1B)
# Assay type: biochemical
# RECORDED CONDITIONS: Table 22
READOUT NAME: IC50

Requested field: IC50. Item: CCc1ccc(C2Cn3c(nn4c(C5CCOCC5)ncc4c3=O)N2CC)cn1 (stereo not drawn) [Example 88]
< 1000 nM

Requested field: IC50. Item: CCCN1c2nn3c(C4CCOCC4)ncc3c(=O)n2C[C@H]1c1ccc(CC)nc1 [Example 91]
1000 to 10000 nM

Requested field: IC50. Item: CC(C)c1ncc2c(=O)n3c(nn12)N(Cc1cccc(C(F)(F)F)c1)CCC3 [Example 32]
< 1000 nM

Requested field: IC50. Item: CC(C)c1ncc2c(=O)n3c(nn12)N(CCCc1ccncc1)CC3 [Example 13]
< 1000 nM

Requested field: IC50. Item: CC(C)c1ncc2c(=O)n3c(nn12)N(CCc1ccc(C#N)cc1)CCC3 [Example 38]
< 1000 nM

Requested field: IC50. Item: N#Cc1ccc(CN2CCCn3c2nn2c(C4CCOCC4)ncc2c3=O)cc1 [Example 61]
1000 to 10000 nM

Requested field: IC50. Item: CC(C)c1ncc2c(=O)n3c(nn12)N(CCCC1CCOCC1)CCC3 [Example 29]
< 1000 nM

Requested field: IC50. Item: CC(C)c1ncc2c(=O)n3c(nn12)N(CCCc1ccc(F)cc1)CCC3 [Example 47]
< 1000 nM

Requested field: IC50. Item: CC(C)c1ncc2c(=O)n3c(nn12)N(CCC1CC1)CCC3 [Example 20]
< 1000 nM

* * *

# STUDY TARGET: PDE1B (Homo sapiens, UniProt Q01064)
# METHOD DESCRIPTION: In vitro HTRF PDE1 inhibition assay (PDE1B)
# Format: biochemical
# RECORDED CONDITIONS: Table 22
READOUT NAME: IC50

Below: 8 compounds and their reported IC50.
>>> print(df.to_string())
                                   compound                          study_target  readout_name            result
0       CC(C)CCN1CCCn2c1nn1c(C(C)C)ncc1c2=O  PDE1B (Homo sapiens, UniProt Q01064)          IC50         < 1000 nM
1  CC(C)c1ncc2c(=O)n3c(nn12)N(CC1CCN(C)CC1)CCC3  PDE1B (Homo sapiens, UniProt Q01064)          IC50  1000 to 10000 nM
2  CC(C)c1ncnc2c(=O)n3c(nc12)N(Cc1ccc(C#N)cc1)CC3  PDE1B (Homo sapiens, UniProt Q01064)          IC50         < 1000 nM
3      O=c1c2cnc(C3CCOCC3)n2nc2n1CCN2CCCCCO  PDE1B (Homo sapiens, UniProt Q01064)          IC50         < 1000 nM
4  CC(C)c1ncc2c(=O)n3c(nn12)N(CCC1CCN(C)CC1)CCC3  PDE1B (Homo sapiens, UniProt Q01064)          IC50         < 1000 nM
5  COc1ccccc1CCCN1CCCn2c1nn1c(C(C)C)ncc1c2=O  PDE1B (Homo sapiens, UniProt Q01064)          IC50         < 1000 nM
6  O=c1c2cnc(C3CCOCC3)n2nc2n1CCN2CCc1ccc(F)cc1  PDE1B (Homo sapiens, UniProt Q01064)          IC50         < 1000 nM
7  CC(C)n1ncc2c(=O)n3c(nc21)N(Cc1ccc(C(F)(F)F)cc1)CCC3  PDE1B (Homo sapiens, UniProt Q01064)          IC50         < 1000 nM

Tell me reported IC50 for `CC(C)n1ncc2c(=O)n3c(nc21)N(Cc1ccc(-c2ccccn2)cc1)CC3` , tested with PDE1B (Homo sapiens, UniProt Q01064).
< 1000 nM

Tell me reported IC50 for `CC(C)n1ncc2c(=O)n3c(nc21)N(CC1CCOCC1)CC3` , tested with PDE1B (Homo sapiens, UniProt Q01064).
< 1000 nM

Tell me reported IC50 for `CC(C)c1ncc2c(=O)n3c(nn12)N(CCc1ccc(F)cc1)CCC3` , tested with PDE1B (Homo sapiens, UniProt Q01064).
< 1000 nM

* * *

# STUDY TARGET: PDE1B (Homo sapiens)
# METHOD DESCRIPTION: In vitro HTRF PDE1 inhibition assay (PDE1B)
# Type: biochemical
# RECORDED CONDITIONS: Table 22
pIC50: −log10 of the molar value.
READOUT NAME: pIC50

Below: 6 compounds and their reported pIC50.
                                   compound  readout_name        result
0  CC(C)c1ncc2c(=O)n3c(nn12)N(C)C(c1ccc(Cl)cc1)CC3 (stereo not drawn) [Example 72]         pIC50        > 6.00
1  CC(C)c1ncc2c(=O)n3c(nn12)N(C(=O)CCC1CCOCC1)CCC3 [Example 124]         pIC50  4.00 to 5.00
2  CC(C)c1ncc2c(=O)n3c(nn12)N(Cc1ccc(C(F)(F)F)cc1)CCC3 [Example 34]         pIC50        > 6.00
3  CC(C)c1ncc2c(=O)n3c(nn12)N(C)[C@@H](c1ccc(Cl)cn1)C3 [Example 84]         pIC50        > 6.00
4  CCCN1c2nn3c(C4CCOCC4)ncc3c(=O)n2CC[C@@H]1c1ccc(Cl)cc1 [Example 71]         pIC50        > 6.00
5  CC(C)c1ncc2c(=O)n3c(nn12)N(CC(=O)N1CCOCC1)CCC3 [Example 28]         pIC50  5.00 to 6.00

Requested field: pIC50. Item: CC(C)n1ncc2c(=O)n3c(nc21)N(CC1CCOCC1)CCC3 [Example 78]
> 6.00

Requested field: pIC50. Item: CCc1ccc(C2Cn3c(nn4c(C(C)C)ncc4c3=O)N2CC)cn1 (stereo not drawn) [Example 95]
5.00 to 6.00

Requested field: pIC50. Item: CCc1ccc(C2Cn3c(nn4c(C(C)C)ncc4c3=O)N2CC(C)C)cn1 (stereo not drawn) [Example 99]
5.00 to 6.00

* * *

# STUDY TARGET: PDE1B (Homo sapiens)
# METHOD DESCRIPTION: In vitro HTRF PDE1 inhibition assay (PDE1B)
# Assay type: biochemical
# RECORDED CONDITIONS: Table 22
This section presents compounds with their documented IC50 values.

Below: 4 compounds and their reported IC50.
>>> df
                                   compound  readout_name      result
0  O=c1c2cnc(C3CCOCC3)n2nc2n1CC(c1ccc(Cl)cc1)C2 (stereo not shown)          IC50  1 to 10 µM
1  CCCN1c2nn3c(C(C)C)ncc3c(=O)n2C[C@@H]1c1ccc(CC)nc1          IC50  1 to 10 µM
2  COc1ccc(CCCN2CCCn3c2nn2c(C(C)C)ncc2c3=O)cc1          IC50  1 to 10 µM
3  CCCN1c2nn3c(C4CCOCC4)ncc3c(=O)n2CC1c1ccc(OC)cc1 (racemic)          IC50      < 1 µM

Proceeding to the next compound to report its IC50.
Requested field: IC50. Item: COc1ccc(C2CCn3c(nn4c(C5CCCC5)ncc4c3=O)C2)cc1 (stereo not shown)
1 to 10 µM

* * *

This section presents molecules with their documented IC50 values.
# STUDY TARGET: PDE1B (Homo sapiens)
# METHOD DESCRIPTION: In vitro HTRF PDE1 inhibition assay (PDE1B)
# Type: biochemical
# RECORDED CONDITIONS: Table 22
# Excerpt: An exemplary procedure for the in vitro Homogenous Time Resolved Fluorescence assay, which can be used to determine the inhibitory action of compounds of the invention toward PDE1 or its isoforms, follows. The HTRF PDE1 assay utilized the HTRF (Homogenous Time Resolved Fluorescence) technology, which is based on the competition between unlabeled cyclic nucleotide and cyclic nucleotide labeled with XL665 for the binding to cyclic nucleotide-specific antibody labeled with cryptate. […]

Below: 3 molecules and their reported IC50.
In [3]: df
Out[3]:
                                   molecule  readout_name  result
0  CC(C)(C)CCN1CCn2c1nn1c(C3CCOCC3)ncc1c2=O          IC50  < 1 µM
1      CC(C)c1ncc2c(=O)n3c(nn12)N(CCCCO)CC3          IC50  < 1 µM
2     CC(C)c1ncc2c(=O)n3c(nn12)N(CCCCCO)CC3          IC50  < 1 µM

Requested field: IC50. Item: `CCc1ccc([C@H]2Cn3c(nn4c(C5CCOCC5)ncc4c3=O)N2CC(C)C)cn1`
1 to 10 µM

Requested field: IC50. Item: CN1c2nn3c(C4CCOCC4)ncc3c(=O)n2CC1c1ccc(Cl)cc1 (racemic)
< 1 µM
